System: Pseudomonas aeruginosa PAO1-Xen41
Test: Hill coefficient of concentration-effect curve (unitless); higher = steeper concentration-effect curve
Conditions: medium (conditioned by secondary species or non-conditioned control): M. catarrhalis
Mark satisfied for reported Hill coefficient of 4 or greater; mark not satisfied for anything smaller.

Asked: Entry O=C(O)c1cn(C2CC2)c2cc(N3CCNCC3)c(F)cc2c1=O [ciprofloxacin] : is its Hill coefficient no less than 4?
Given back: not satisfied

Asked: Entry C[C@@H](O)[C@H]1C(=O)N2C(C(=O)O)=C(S[C@@H]3CN[C@H](C(=O)N(C)C)C3)[C@H](C)[C@H]12 [meropenem] : is its Hill coefficient no less than 4?
Given back: satisfied

Asked: Entry C[C@@H]1O[C@@H]1P(=O)(O)O [fosfomycin] : is its Hill coefficient no less than 4?
Given back: not satisfied

Asked: Entry CO[C@H]1/C=C/O[C@@]2(C)Oc3c(C)c(O)c4c(O)c(c(/C=N/N5CCN(C)CC5)c(O)c4c3C2=O)NC(=O)/C(C)=C\C=C\[C@H](C)[C@H](O)[C@@H](C)[C@@H](O)[C@@H](C)[C@H](OC(C)=O)[C@@H]1C [rifampicin] : is its Hill coefficient no less than 4?
Given back: not satisfied

Source: the supplement of paper PMC11619387
